- experimental-system: Muscarinic acetylcholine receptor M4 (Homo sapiens)
- experimental-protocol: compounds altering M4/GIRK thallium flux, either direction, primary screen, M4 allosteric agonist project, cell-based, HEK293 M4/GIRK, BTC-AM (AID 625);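 note: thallium influx through GIRK channels coupled to M4 in HEK293 cells with BTC-AM dye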
- run-parameters: at 10 µM, actives lie on both sides
Exam item: assign Yes to entries whose fluorescence slope is below 0.005 and No to entries at or above 0.005. Note that a value of exactly 0.005 receives No.

Use the examples below as a reference point.
| molecule | assigned-label |
| --- | --- |
| CCc1cc(=O)oc2cc(C)c(CN3CCCC3)c(O)c12 | Yes |
| C=CCOc1nc2c(c(=O)n(Cc3ccc(Cl)cc3)c(=O)n2C)n1C | Yes |
| O=C1CC(c2ccco2)CC(O)=C1C=NCCN1CCN(C2CC(=O)N(c3ccccc3)C2=O)CC1 (stereo unspecified) | Yes |
| CC1(C)Cc2[nH]c(=S)c(C#N)cc2CO1 | No |
| CCCCC(=O)c1c(C)cc(C)[nH]c1=O | No |

Would you kindly verify if fluorescence slope of CCCc1cc(Nc2c(C)n(C)n(-c3ccccc3)c2=O)n2c(nc3ccccc32)c1C#N is strictly less than 0.005?
Yes

Would you kindly verify if fluorescence slope of Cn1c(=O)[nH]c2cc(Cl)cnc21 is strictly less than 0.005?
Yes

Would you kindly verify if fluorescence slope of O=C(c1cc(N2CCCCC2)nc2ccccc12)N1CCOCC1 is strictly less than 0.005?
No

Would you kindly verify if fluorescence slope of COc1ccc(C2C(C(C)=O)=C(O)C(=O)N2c2nccs2)cc1OC (stereo unspecified) is strictly less than 0.005?
No

Would you kindly verify if fluorescence slope of CC1(C(=O)CSc2nc3ccccc3[nH]2)CCC(=O)O1 (stereo unspecified) is strictly less than 0.005?
No

###

- experimental-system: Voltage-gated potassium channel subunit beta-2 (Rattus norvegicus) (UniProt P62483)
- Sequence (P62483 whole entry, looked up): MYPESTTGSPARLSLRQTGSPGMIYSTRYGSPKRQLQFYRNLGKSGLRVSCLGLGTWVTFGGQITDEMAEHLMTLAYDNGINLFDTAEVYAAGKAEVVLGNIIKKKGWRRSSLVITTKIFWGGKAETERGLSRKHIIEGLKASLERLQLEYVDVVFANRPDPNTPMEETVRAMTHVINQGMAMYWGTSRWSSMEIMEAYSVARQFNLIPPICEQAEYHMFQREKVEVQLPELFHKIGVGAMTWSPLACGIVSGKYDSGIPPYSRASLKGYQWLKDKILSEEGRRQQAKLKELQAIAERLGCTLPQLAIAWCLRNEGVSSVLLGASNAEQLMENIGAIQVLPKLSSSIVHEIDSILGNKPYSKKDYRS
- experimental-protocol: KvBeta positive modulators, primary screen, biochemical, NADPH fluorescence (AID 623);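 note: fluorescence intensity change per second fitted from 20 to 320 s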
- run-parameters: Recombinant KvBeta, NADPH fluorescence decrease slope, 10 min; at 10 µM; active compounds read low
Calls of active or inactive are those of the source.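 How the source made its calls: active means NADPH fluorescence slope more negative than the mean of all samples by about 3 SD, 99.7% confidence; inactive means the rest.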
assay-metric: NADPH fluorescence slope

Sample records with NADPH fluorescence slope:
| molecule | NADPH fluorescence slope |
| --- | --- |
| COc1cccc(C2/C(=C(\O)c3ccc4c(c3)OCCO4)C(=O)C(=O)N2CCCN(C)C)c1OC (stereo unspecified) | -9.9e-05 (inactive) |
| CCOc1ccc(Cn2nnc(C(=O)NCc3ccc(OC)cc3)c2N)cc1 | -2.2e-06 (inactive) |
| CCCc1nc2n[nH]c(N)c2c2c1CCCC2 | -0.000102 (inactive) |

Using the record for CCOC(=O)N1CCN(S(=O)(=O)c2cc(Cl)ccc2Cl)CC1 , report its NADPH fluorescence slope.
-2.7e-05 (inactive)

###

# maps each entry to its inhibition
- experimental-protocol: inhibitors of TNFa-induced NFkB p65 translocation, primary screen, imaging, HUVEC, MLSMR starter and 10KST1 sets (AID 438);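 note: compound added about 3h40 before a 20 min TNFalpha stimulation; signal is the nuclear over cytoplasmic p65 intensity ratio per well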
- run-parameters: HUVEC TNFa-induced p65 nuclear translocation; at 2 µM, active compounds read high, 0% TNFa-plus-vehicle, 100% no-TNFa wells
The source made the active and inactive calls.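 The calls were made as follows: active = inhibition above 20% together with a positive visual image hit; inconclusive = visual image hit but inhibition not above 20%; inactive = no visual image hit.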

Sample records with inhibition:
| compound | inhibition |
| --- | --- |
| COc1cc2c(N3CCOCC3)cc(O)c(CC(=O)Nc3ccccc3)c2cc1OC | 2.5% (inactive) |
| O=C(c1ccc2c(c1)OCO2)N1CCCN(C(=O)c2ccc3c(c2)OCO3)CC1 | 5% (inactive) |
| Cc1ccc(-n2ncc(C(=O)N3CCc4ccccc4C3)c2NC(=O)c2ccco2)cc1C | 10.2% (inactive) |
| O=C(NCCC1=CCCCC1)c1ccc(=O)oc1 | -1.4% (inactive) |

Using the record for Cc1cc(C)n(C2CCCCC2OC(=O)c2ccccc2)n1 (stereo not drawn) , report its inhibition.
-10% (inactive)

Using the record for Cc1noc(C)c1COC(=O)c1ccccc1Oc1ccccc1 , report its inhibition.
-25.6% (inactive)

Using the record for CC(O)CNc1nc2c(c(=O)n(C)c(=O)n2C)n1Cc1cccc(C(F)(F)F)c1 (stereo not drawn) , report its inhibition.
-9.1% (inactive)

Using the record for CSCCC(NC(=O)c1ccco1)C(=O)O (stereo not drawn) , report its inhibition.
4.4% (inactive)
